Hello, the source for this data is the kinase profiling compilation of Christmann-Franck et al. (2016), in case you need it.

System tested: UniProtKB P41240
Procedure text: radiometric filter-binding kinase assay
Setup conditions: compound 10.0 µM
Attribute measured: residual activity (%)

# Compound structure string, residual activity, %
records = [
    ("CCc1cncnc1N1CCN(Cc2nc3cc(C(F)(F)F)ccc3[nH]2)CC1", 98),
    ("COc1cc2ncn(-c3cc(OCc4ccccc4S(C)(=O)=O)c(C#N)s3)c2cc1OC", 74),
    ("N#Cc1c(O)c2c(-c3ccc(-c4ccccc4O)cc3)csc2[nH]c1=O", 79),
    ("O=C1NC(=S)N[C@@H]1Cc1c[nH]c2ccccc12", 104),
    ("O=C(N[C@@H](COc1ccc2[nH]c(=O)[nH]c2c1)c1ccccc1)c1cccn(Cc2ccc(F)c(F)c2)c1=O", 101),
    ("N#Cc1c(C2CCNCC2)cc(-c2c(O)cccc2OCC2CC2)nc1N", 74),
]

====

System tested: NEK2 (human)
Procedure text: radiometric filter-binding kinase assay
Setup conditions: compound 0.1 µM
Attribute measured: residual activity (%)

# Compound, Attribute measured, Assay value
data = [
    ("O=C(Nc1ccccc1-c1cn2c(CN3CCNCC3)csc2n1)c1cnc2ccccc2n1", "residual activity", 91),
    ("NC(=O)c1cc2c(-c3cccc(-c4ccccc4)c3)cnc(N)c2s1", "residual activity", 88),
    ("CNC(=O)C1[C@H]2O[C@@](C)([C@@H]1N)n1c3ccccc3c3c4c(c5c6ccccc6n2c5c31)C(=O)NC4 (stereo partly drawn)", "residual activity", 105),
    ("Cc1cccc(-c2nn(C(=S)Nc3ccccc3)cc2-c2ccnc3ccccc23)n1", "residual activity", 109),
    ("C/C(=C1/C(=O)Nc2ccc(NC(N)=O)cc21)c1ccc[nH]1", "residual activity", 86),
    ("CN(C)C/C=C/C(=O)Nc1cccc(C(=O)Nc2ccc(Nc3nccc(-c4cccnc4)n3)cc2)c1", "residual activity", 93),
    ("COc1ccc(N(C(=O)Nc2c(C)cccc2C)c2cc(Nc3ccc(N4CCN(C)CC4)cc3)ncn2)c(OC)c1", "residual activity", 93),
    ("CCCCCc1ccc(/C=C/[C@H](O)[C@@H](CO)NC)cc1", "residual activity", 110),
]

====

System tested: UniProt O96013
Sequence (O96013 whole entry, looked up): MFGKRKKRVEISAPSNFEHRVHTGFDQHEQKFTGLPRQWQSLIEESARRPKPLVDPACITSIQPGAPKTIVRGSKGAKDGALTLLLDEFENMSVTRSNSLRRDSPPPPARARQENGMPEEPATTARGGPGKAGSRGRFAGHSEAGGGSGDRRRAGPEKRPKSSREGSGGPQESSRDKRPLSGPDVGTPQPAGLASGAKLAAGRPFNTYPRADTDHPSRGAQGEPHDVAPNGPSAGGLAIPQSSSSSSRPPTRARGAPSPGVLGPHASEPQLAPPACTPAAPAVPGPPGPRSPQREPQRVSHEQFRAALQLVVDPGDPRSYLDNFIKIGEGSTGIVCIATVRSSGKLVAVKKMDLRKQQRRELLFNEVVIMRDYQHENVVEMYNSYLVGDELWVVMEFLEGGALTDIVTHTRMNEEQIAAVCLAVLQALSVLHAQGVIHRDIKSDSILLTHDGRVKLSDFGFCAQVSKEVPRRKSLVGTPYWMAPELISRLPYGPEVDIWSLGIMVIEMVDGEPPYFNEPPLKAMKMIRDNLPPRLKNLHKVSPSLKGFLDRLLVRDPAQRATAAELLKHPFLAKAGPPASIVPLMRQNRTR
Procedure text: radiometric filter-binding kinase assay
Setup conditions: compound 0.01 µM
Attribute measured: residual activity (%)

In the examples that follow, each entry is paired with its recorded residual activity.
# Compound, System tested, residual activity / %
measured = [
    ("O=C(Nc1nc2cc(C(F)(F)F)cc(NC3CC3)n2n1)c1cccnc1", "UniProt O96013", 111),
    ("COc1ccc(N(C(=O)Nc2c(C)cccc2C)c2cc(Nc3ccc(N4CCN(C)CC4)cc3)ncn2)c(OC)c1", "UniProt O96013", 116),
    ("CNc1nc(-c2ccc3c(N)n[nH]c3c2)cc(N2C[C@@H](C(=O)NC3CCCCC3)CC[C@H]2C)n1", "UniProt O96013", 108),
    ("COc1cc(O)c2c(c1)[C@H]1OC1C[C@H](O)[C@H](O)C(=O)/C=C\\C[C@H](C)OC2=O (stereo partly specified)", "UniProt O96013", 81),
]

A = C/C(=C1/C(=O)Nc2ccc(NC(N)=O)cc21)c1ccc[nH]1
B = CNC(=O)C1[C@H]2O[C@@](C)([C@@H]1N)n1c3ccccc3c3c4c(c5c6ccccc6n2c5c31)C(=O)NC4 (stereo partly specified)
input: Select one: A or B . Criterion: greater recorded residual activity. API: response body contains the label of the selected item.
output: A

====

System tested: UniProt P45984
Sequence (P45984 whole entry, looked up): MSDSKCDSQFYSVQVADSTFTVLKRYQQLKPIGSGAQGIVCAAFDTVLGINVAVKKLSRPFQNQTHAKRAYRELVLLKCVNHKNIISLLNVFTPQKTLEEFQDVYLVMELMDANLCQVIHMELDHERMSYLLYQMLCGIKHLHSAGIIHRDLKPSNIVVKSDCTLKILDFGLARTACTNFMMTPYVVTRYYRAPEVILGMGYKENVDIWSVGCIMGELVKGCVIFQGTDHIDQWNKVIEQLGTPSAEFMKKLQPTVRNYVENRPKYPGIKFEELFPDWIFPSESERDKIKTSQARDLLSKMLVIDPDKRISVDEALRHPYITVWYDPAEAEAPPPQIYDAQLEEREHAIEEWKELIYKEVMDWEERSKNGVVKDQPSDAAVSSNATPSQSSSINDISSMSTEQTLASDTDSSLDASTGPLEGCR
Procedure text: radiometric filter-binding kinase assay
Setup conditions: compound 0.1 µM
Attribute measured: residual activity (%)

A = CNc1nc(-c2ccc3c(N)n[nH]c3c2)cc(N2C[C@@H](C(=O)NC3CCCCC3)CC[C@H]2C)n1
B = CN1CCN(CCOc2cc(OC3CCOCC3)c3c(Nc4c(Cl)ccc5c4OCO5)ncnc3c2)CC1
input: Select one: A or B . Criterion: greater recorded residual activity. API: response body contains the label of the selected item.
output: A
(A: 126%, B: 88%)

====

System tested: UniProt Q15746
Sequence (Q15746 whole entry, looked up): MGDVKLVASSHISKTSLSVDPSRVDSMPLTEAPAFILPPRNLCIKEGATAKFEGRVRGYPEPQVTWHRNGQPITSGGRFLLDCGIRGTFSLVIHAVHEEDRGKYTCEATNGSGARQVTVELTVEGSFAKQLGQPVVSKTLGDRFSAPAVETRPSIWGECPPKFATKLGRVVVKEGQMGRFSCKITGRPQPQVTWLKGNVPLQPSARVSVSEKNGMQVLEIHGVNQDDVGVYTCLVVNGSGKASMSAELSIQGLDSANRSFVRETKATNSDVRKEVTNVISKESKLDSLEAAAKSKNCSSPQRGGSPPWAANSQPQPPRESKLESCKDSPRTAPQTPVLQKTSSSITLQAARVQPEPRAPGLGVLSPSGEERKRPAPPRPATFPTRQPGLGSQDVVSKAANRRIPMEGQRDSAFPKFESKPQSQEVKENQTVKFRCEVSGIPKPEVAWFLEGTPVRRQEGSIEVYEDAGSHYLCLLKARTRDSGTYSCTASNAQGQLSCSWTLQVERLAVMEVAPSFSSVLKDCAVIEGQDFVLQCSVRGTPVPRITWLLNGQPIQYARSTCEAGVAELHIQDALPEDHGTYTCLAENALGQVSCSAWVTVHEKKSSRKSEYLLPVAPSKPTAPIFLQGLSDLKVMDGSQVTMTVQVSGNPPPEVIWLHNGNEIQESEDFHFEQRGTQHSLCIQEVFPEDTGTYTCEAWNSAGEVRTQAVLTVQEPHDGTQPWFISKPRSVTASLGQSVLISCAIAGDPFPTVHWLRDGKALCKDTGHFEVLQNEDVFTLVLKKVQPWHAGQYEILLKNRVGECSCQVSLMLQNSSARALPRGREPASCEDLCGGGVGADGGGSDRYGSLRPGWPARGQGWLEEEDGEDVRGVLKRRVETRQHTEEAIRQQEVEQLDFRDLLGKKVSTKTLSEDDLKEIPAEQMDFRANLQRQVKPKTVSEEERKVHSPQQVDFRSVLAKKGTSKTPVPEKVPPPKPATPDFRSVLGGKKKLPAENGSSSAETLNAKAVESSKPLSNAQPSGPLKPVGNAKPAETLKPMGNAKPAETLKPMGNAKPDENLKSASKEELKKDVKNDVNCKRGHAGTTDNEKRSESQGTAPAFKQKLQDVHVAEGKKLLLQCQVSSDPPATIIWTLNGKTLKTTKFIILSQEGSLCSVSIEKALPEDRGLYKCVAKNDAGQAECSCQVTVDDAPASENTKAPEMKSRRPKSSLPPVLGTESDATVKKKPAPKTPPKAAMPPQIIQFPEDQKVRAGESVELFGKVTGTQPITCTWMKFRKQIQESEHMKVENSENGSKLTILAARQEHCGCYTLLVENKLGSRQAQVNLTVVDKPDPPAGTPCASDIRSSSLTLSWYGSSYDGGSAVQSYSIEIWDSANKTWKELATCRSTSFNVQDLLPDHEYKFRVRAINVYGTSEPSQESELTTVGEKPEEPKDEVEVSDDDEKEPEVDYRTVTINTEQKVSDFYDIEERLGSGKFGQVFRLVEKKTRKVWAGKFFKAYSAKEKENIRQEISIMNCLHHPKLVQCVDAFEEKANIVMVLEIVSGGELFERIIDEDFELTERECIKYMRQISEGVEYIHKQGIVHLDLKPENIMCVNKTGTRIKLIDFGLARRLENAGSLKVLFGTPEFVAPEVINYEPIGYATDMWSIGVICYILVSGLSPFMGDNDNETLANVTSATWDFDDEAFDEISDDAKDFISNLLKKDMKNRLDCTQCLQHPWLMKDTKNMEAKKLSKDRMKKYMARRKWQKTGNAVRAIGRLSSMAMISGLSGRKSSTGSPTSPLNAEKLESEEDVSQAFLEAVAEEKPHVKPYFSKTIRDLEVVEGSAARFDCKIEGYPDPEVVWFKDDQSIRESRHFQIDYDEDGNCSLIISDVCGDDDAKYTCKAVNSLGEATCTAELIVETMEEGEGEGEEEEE
Procedure text: radiometric filter-binding kinase assay
Setup conditions: compound 10.0 µM
Attribute measured: residual activity (%)

# Compound structure string, Unit tag, residual activity
measured = [
    ("NC(=O)c1cc2c(-c3cccc(-c4ccccc4)c3)cnc(N)c2s1", "%", 17),
    ("O=C(NOC[C@H](O)CO)c1ccc(F)c(F)c1Nc1ccc(I)cc1Cl", "%", 98),
    ("CN1C(=O)[C@@H](Cc2c[nH]c3ccccc23)NC1=S", "%", 81),
    ("Cc1cccc(Nc2nn(C)c3ncnc(N)c23)c1", "%", 87),
]

1 = CCn1c(-c2nonc2N)nc2cncc(CNC3CCNCC3)c21
2 = O=S(=O)(c1ccc(F)c2nonc12)N1CCN(c2ncc(C(F)(F)F)cc2Cl)CC1
input: Select one: 1 or 2 . Criterion: greater recorded residual activity. API: response body contains the label of the selected item.
output: 2

====

System tested: NUAK1 (human)
Procedure text: radiometric filter-binding kinase assay
Setup conditions: compound 0.1 µM
Attribute measured: residual activity (%)

# Compound, residual activity [%]
records = [
    ("Cc1cc(NC(=O)c2cccc(NC(=O)/C=C/CN(C)C)c2)ccc1Nc1nccc(-c2cccnc2)n1", 79),
]

P = COc1ccc(-n2ncc3cnc(Nc4cc(OC)c(OC)c(OCCCN5CCN(C)CC5)c4)nc32)cc1
Q = CC1=C(CO)C(=O)O[C@@H]([C@@H](C)[C@H]2CC[C@H]3[C@@H]4C[C@H]5O[C@]56[C@@H](O)C=CC(=O)[C@]6(C)C4CC[C@]23C)C1 (stereo partly drawn)
input: Select one: P or Q . Criterion: greater recorded residual activity. API: response body contains the label of the selected item.
output: Q
(Q: 112%, P: 16%)

====

System tested: PRKCA (human) (UniProt P17252)
Procedure text: radiometric filter-binding kinase assay
Setup conditions: compound 1.0 µM
Attribute measured: residual activity (%)

# Molecule, residual activity, %
records = [
    ("N#Cc1c(C2CCNCC2)cc(-c2c(O)cccc2OCC2CC2)nc1N", 117),
    ("CNc1nc(-c2ccc3c(N)n[nH]c3c2)cc(N2C[C@@H](C(=O)NC3CCCCC3)CC[C@H]2C)n1", 98),
    ("Nc1cccc2c1CN(C1CCC(=O)NC1=O)C2=O (stereo unspecified)", 107),
]

1 = CCn1c(-c2nonc2N)nc2cncc(CNC3CCNCC3)c21
2 = Cc1ccc(Sc2cnc(Nc3cccc(Br)n3)s2)cc1C(=O)N1CCN(C(=O)CN)CC1
input: When the recorded residual activity values are compared, which is smaller: that of 1 or that of 2 ? API: response body contains the label of the selected item.
output: 2

====

System tested: MAPKAPK2 (human) (UniProt P49137)
Sequence (P49137 whole entry, looked up): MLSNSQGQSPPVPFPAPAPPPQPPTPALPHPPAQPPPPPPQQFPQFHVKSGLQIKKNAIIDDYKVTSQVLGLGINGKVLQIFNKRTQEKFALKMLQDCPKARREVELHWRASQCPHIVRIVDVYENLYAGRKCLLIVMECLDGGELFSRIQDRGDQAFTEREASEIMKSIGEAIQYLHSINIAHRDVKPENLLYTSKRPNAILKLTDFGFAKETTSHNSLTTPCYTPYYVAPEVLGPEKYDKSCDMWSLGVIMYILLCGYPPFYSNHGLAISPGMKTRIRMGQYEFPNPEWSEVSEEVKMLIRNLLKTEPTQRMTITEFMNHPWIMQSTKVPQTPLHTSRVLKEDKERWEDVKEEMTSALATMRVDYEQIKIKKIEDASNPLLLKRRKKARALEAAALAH
Procedure text: radiometric filter-binding kinase assay
Setup conditions: compound 1.0 µM
Attribute measured: residual activity (%)

In the examples that follow, each entry is paired with its recorded residual activity.
# Molecule, residual activity (%)
data = [
    ("CCCCCc1ccc(/C=C/[C@H](O)[C@@H](CO)NC)cc1", 95),
    ("COc1ccc2c(c1)c1c3c(c4c5ccccc5n(C)c4c1n2CC(O)CN(C)C)C(=O)NC3=O (stereo not drawn)", 93),
    ("Cc1ccc(-c2ccc3c(ccc4sc5c(c43)NC[C@@H](C)NC5=O)n2)cn1", 9),
    ("O=C(O)c1cc(N=Nc2ccc(S(=O)(=O)Nc3ccccn3)cc2)ccc1O", 100),
    ("C[C@H]1CCCC(=O)CCC/C=C/c2cc(O)cc(O)c2C(=O)O1", 101),
    ("NC(=O)Nc1ccc2c(c1)/C(=C/c1cc(-c3cccnc3)c[nH]1)C(=O)N2", 49),
    ("COc1cc(C(=O)N2CCOCC2)c(F)cc1Nc1ncc(C(F)(F)F)c(NC2CC2)n1", 102),
    ("N#Cc1c(C2CCNCC2)cc(-c2c(O)cccc2OCC2CC2)nc1N", 115),
]

A = Cc1cccc(-c2nn(C(=S)Nc3ccccc3)cc2-c2ccnc3ccccc23)n1
B = CC1=C(CO)C(=O)O[C@@H]([C@@H](C)[C@H]2CC[C@H]3[C@@H]4C[C@H]5O[C@]56[C@@H](O)C=CC(=O)[C@]6(C)C4CC[C@]23C)C1 (stereo partly drawn)
input: Select one: A or B . Criterion: greater recorded residual activity. API: response body contains the label of the selected item.
output: A

a = CC(C)(C#N)c1ccc(N2C(=O)OCc3cnc4ccc(-c5cnc6ccccc6c5)cc4c32)cc1
b = NC(=O)c1cc(-c2ccnc(NC3CCCCC3)c2)nc(N2CCNCC2)c1
input: Select one: a or b . Criterion: greater recorded residual activity. API: response body contains the label of the selected item.
output: a
(a: 115%, b: 72%)
